Target: Gal(b1-4)GlcNAc(b1-2)Man(a1-3)[Man(a1-6)]Man(b1-4)GlcNAc(b1-4)GlcNAc
Test: glycan array binding signal (z-score within array); higher = stronger binding
Conditions: glycan notation: IUPAC condensed, linker removed
The entries come from a sample that favours the strongest signals as a whole.
RECORDED METRIC: glycan array binding signal (z-score)

See these solved cases before continuing.
{"BINDER": "Si Bti9 1b-V5-his (Solanum lycopersicum) (protein) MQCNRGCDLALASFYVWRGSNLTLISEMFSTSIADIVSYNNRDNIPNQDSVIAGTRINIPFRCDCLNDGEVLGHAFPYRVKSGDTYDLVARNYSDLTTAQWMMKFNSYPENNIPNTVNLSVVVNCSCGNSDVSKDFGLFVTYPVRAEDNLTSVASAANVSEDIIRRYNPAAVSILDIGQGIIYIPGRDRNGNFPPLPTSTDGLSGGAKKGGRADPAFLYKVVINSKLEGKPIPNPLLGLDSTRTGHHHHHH", "RECORDED METRIC": "glycan array binding signal (z-score)", "RESULT": -0.294}
{"BINDER": "PpFlo3 (Pichia pastoris) (protein) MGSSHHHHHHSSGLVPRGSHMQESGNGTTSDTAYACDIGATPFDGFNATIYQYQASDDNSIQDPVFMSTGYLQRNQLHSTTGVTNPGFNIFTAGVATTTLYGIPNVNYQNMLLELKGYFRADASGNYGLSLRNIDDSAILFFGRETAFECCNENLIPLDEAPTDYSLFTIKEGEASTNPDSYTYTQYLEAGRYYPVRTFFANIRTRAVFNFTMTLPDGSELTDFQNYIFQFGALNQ", "RECORDED METRIC": "glycan array binding signal (z-score)", "RESULT": -0.233}

Could you share which glycan array binding signal (z-score) value was measured for MGL1 (Mus musculus), P49300 (protein) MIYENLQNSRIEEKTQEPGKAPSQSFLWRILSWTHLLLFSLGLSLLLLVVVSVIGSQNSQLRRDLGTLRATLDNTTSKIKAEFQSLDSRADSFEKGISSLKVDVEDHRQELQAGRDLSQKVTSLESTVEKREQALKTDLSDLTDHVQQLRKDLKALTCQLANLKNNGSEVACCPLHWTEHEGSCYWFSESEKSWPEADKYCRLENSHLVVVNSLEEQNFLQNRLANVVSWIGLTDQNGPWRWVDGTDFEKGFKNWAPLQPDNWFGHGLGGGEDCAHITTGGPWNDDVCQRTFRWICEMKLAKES ? 0.201

Could you share which glycan array binding signal (z-score) value was measured for GNL (Galanthus nivalis) (protein) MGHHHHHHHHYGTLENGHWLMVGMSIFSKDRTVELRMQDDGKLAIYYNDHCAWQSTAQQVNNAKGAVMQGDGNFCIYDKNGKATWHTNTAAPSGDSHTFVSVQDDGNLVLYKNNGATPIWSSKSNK ? 10.9

Could you share which glycan array binding signal (z-score) value was measured for BDCA-2 (Homo sapiens), Q8WTT0 (protein) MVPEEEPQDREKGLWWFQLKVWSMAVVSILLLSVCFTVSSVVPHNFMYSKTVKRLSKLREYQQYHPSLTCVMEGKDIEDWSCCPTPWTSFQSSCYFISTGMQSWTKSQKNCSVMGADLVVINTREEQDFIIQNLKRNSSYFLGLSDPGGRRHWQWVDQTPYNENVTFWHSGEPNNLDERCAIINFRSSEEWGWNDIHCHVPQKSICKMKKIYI ? 3.54

Could you share which glycan array binding signal (z-score) value was measured for VLRB.aGPA.23-GCN4-biotin (Petromyzon marinus) (protein) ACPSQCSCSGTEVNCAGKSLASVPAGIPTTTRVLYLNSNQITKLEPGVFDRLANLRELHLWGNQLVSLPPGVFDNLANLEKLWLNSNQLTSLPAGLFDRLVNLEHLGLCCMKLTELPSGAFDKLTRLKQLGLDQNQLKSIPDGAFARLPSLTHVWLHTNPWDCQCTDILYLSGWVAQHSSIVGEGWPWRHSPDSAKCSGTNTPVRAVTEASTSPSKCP ? -0.076

Could you share which glycan array binding signal (z-score) value was measured for Morniga (Morus nigra) (protein) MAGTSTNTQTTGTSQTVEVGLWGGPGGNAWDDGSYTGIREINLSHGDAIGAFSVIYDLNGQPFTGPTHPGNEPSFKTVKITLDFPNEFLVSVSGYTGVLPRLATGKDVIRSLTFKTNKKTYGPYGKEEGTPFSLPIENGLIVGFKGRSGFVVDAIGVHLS ? 4.49
